B1: LOC100129726 (parent)
chain: VHTGCHKKLGPEARRPRTRWGKN

# Variants of: B1
# TEST_DESCRIPTION: protein stability index of a GFP-peptide fusion (GPS, HEK-293T) (PSI 1-6); higher = more stable;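 further: lentivirally expressed fusions sorted by FACS into six bins by GFP to DsRed ratio, PSI derived from sequencing read proportions per bin multiplied by bin number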
# STUDY_CONDITIONS: c terminus: native
Would you mind labelling by protein stability index? At or over 2 is true, under is false.

1) VHTGCHKKLGPQARRPRTRWGKN [E12Q] | false
2) VHTGCHKKLGPEARPPRTRWGKN [R15P] | true
3) VHTGCHKLLGPEARRPRTRWGKN [K8L] | true

Query: Is it the case that VHTGCHKKLGPEAYRPRTRWGKN [R14Y] has protein stability index reaching or exceeding 2?
Reply: true

Query: Does the reported protein stability index for VHTGCHKKLGPEARRPRTRWCKN [G21C] fall at or above the 2 mark?
Reply: true

Query: Threshold query (protein stability index >= 2) on VHTGCHKKLGPEARRKRTRWGKN [P16K]
Reply: true

Query: Confirm if protein stability index reported for the variant VHTGCHKKLGPEERRPRTRWGKN [A13E] is 2 or above.
Reply: true

Query: Record VHTVCHKKLGPEARRPRTRWGKN [G4V] ; criterion: protein stability index no lower than 2. Met?
Reply: true

Query: Textbook exercise: given the entry MHTGCHKKLGPEARRPRTRWGKN [V1M] , state whether its protein stability index is greater than or equal to 2.
Reply: false

Query: Is protein stability index for VHTGCHKKLGPEARRPRTRKGKN [W20K] at or above 2?
Reply: true

Cited source for all entries: the supplement of paper PMC10567573
